From: paper PMC2946844

- System Tested: T1, 1xMBD-GFP (UniProt Q9Z2E2 1-75)
- T1 sequence: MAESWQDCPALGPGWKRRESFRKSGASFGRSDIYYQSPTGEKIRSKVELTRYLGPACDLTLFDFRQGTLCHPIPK
- Assay Procedure: SPR
Sorting guide: entries reporting Kd beneath 8 µM go in the Condition met pile, the rest go in the Condition not met pile.

query: API: query returns whether the binder falls strictly under 8 µM in Kd. Query: o_m_o/m_o_m (dsDNA, strand 1 5mC10; strand 2 5mC5,5mC17) DNA 1: TTTGCGGTCCGCTGCCCGACCC DNA 2: GGGTCGGGCAGCGGACCGCAAA
result: Condition not met

query: For o_o_o_o/o_o_m_o (dsDNA, strand 2 5mC14) DNA 1: GAAGTCAACAGGACGGACGCCGCGCAA DNA 2: CTCTTTCTTTGCGCGGCGTCCGTCCTGTTGACTTCCTCT , is the recorded Kd below the cut-off of 8 µM?
result: Condition met

query: Strictly below 8 µM: is that where Kd of o_o_m/o_m_m (dsDNA, strand 1 5mC17; strand 2 5mC5,5mC12) DNA 1: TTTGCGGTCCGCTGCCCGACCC DNA 2: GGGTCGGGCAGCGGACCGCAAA sits?
result: Condition met

query: Consider o_o_o_o/m_m_o_o (dsDNA, strand 2 5mC17,5mC21) DNA 1: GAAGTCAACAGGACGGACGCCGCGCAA DNA 2: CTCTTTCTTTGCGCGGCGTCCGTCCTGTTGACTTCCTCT . Does its Kd lie strictly below 8 µM?
result: Condition met

query: Kd under 8 µM? Item: o_m_o/o_o_o (dsDNA, strand 1 5mC10) DNA 1: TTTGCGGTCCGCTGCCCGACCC DNA 2: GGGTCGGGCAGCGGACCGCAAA
result: Condition not met

query: Is it true that Kd reported for o_m_o/o_m_o (dsDNA, strand 1 5mC10; strand 2 5mC12) DNA 1: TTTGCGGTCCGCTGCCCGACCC DNA 2: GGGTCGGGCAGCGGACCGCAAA is less than 8 µM?
result: Condition met
